# SYSTEM_TESTED: polyclonal IgG (Gammanorm, Octapharma, Sweden)
# ASSAY_TEXT: SPR (Biacore 8K+), variant amine-coupled to CM5, Gammanorm as analyte, 1:1 kinetic fit
QUANTITY_KIND: Kd (nM)
Numbers only, in nM.

- pAM254 (Protein L B5b domain; H, H, Y at positions 10, 45, 60) (designed binder) KEQVTIKEHIYFEDGTVQTATFKGTFAEATAEAYRYADLLSKEHGKYTADLEDGGYTIYIRFAGKEEPEE: 7
- pAM262 (D1 domain; N10H, N45H, N60Y) (designed binder) PKEEVTIKAHLIFADGKTQTAEFKGTFEEATAEAYRYADLLAKVHGEYTADLEDGGYTIYIKFAGKEQPGEN: 11
- pAM251 (Protein L B2 domain; N10H, N45H, N60Y) (designed binder) PKEEVTIKAHLIYADGKTQTAEFKGTFEEAAAEAYRYADALKKDHGEYTVDVADKGYTLYIKFAGKEKTPEE: 20
- pAM260 (Protein L C3b domain; N10H, N45H, N60Y) (designed binder) PKEEVTIKVHLIFADGKIQTAEFKGTFEEATAKAYAYADLLAKEHGEYTADLEDGGYTIYIKFAGKETPETPEE: 18
- pAM247 (Protein L C4 domain; N10H, N45H, N60Q) (designed binder) PKEEVTIKVHLIFADGKTQTAEFKGTFEEATAEAYRYADLLAKVHGEYTADLEDGGYTIQIKFAGKEQPGENPG: 9

Please go through the list and note Kd for each binder.
1. pAM239 (Protein L B4 domain; N10H, N45H, N60Q) (designed binder) PKEEVTIKAHLIYADGKTQTAEFKGTFAEATAEAYRYADLLAKEHGKYTADLEDGGYTIQIRFAGKKVDEKPEE
2. pAM249 (Protein L B1 domain; N10H, N45H, N60Y) (designed binder) SEEEVTIKAHLIFANGSTQTAEFKGTFEKATSEAYAYADTLKKDHGEYTVDVADKGYTLYIKFAGKEKTPEE
3. pAM237 (Protein L B2 domain; N10H, N45H, N60Q) (designed binder) PKEEVTIKAHLIYADGKTQTAEFKGTFEEAAAEAYRYADALKKDHGEYTVDVADKGYTLQIKFAGKEKTPEE
4. pAM243 (Protein L C2 domain; H, H, Q at positions 10, 45, 60) (designed binder) PKEEVTIKVHLIFADGKTQTAEFKGTFEEATAKAYAYADLLAKEHGEYTADLEDGGNTIQIKFAGKETPETPEE

## Output
[17, 29, 27, 39]

Quick one: give me Kd for each item below, same order please.
1. pAM252 (Protein L B3 domain; N10H, N45H, N60Y) (designed binder) PKEEVTIKAHLIYADGKTQTAEFKGTFEEATAEAYRYADLLAKEHGKYTVDVADKGYTLYIKFAGKEKTPEE
2. pAM241 (Protein L C1 domain; H, H, Q at positions 10, 45, 60) (designed binder) PEEEVTIKAHLIFADGSTQNAEFKGTFAKAVSDAYAYADALKKDHGEYTVDVADKGLTLQIKFAGKKEKPEE
3. pAM246 (Protein L C3b domain; N10H, N45H, N60Q) (designed binder) PKEEVTIKVHLIFADGKIQTAEFKGTFEEATAKAYAYADLLAKEHGEYTADLEDGGYTIQIKFAGKETPETPEE
4. pAM259 (Protein L C3 domain; H, H, Y at positions 10, 45, 60) (designed binder) PKEEVTIKVHLIFADGKIQTAEFKGTFEEATAKAYAYANLLAKEHGEYTADLEDGGNTIYIKFAGKETPETPEE
5. pAM238 (Protein L B3 domain; N10H, N45H, N60Q) (designed binder) PKEEVTIKAHLIYADGKTQTAEFKGTFEEATAEAYRYADLLAKEHGKYTVDVADKGYTLQIKFAGKEKTPEE
6. pAM258 (Protein L C2b domain; N10H, N45H, N60Y) (designed binder) PKEEVTIKVHLIFADGKTQTAEFKGTFEEATAKAYAYADLLAKEHGEYTADLEDGGYTIYIKFAGKETPETPEE
7. pAM244 (Protein L C2b domain; N10H, N45H, N60Q) (designed binder) PKEEVTIKVHLIFADGKTQTAEFKGTFEEATAKAYAYADLLAKEHGEYTADLEDGGYTIQIKFAGKETPETPEE
8. pAM255 (Protein L C1 domain; H, H, Y at positions 10, 45, 60) (designed binder) PEEEVTIKAHLIFADGSTQNAEFKGTFAKAVSDAYAYADALKKDHGEYTVDVADKGLTLYIKFAGKKEKPEE

## Output
1: 16; 2: 87; 3: 17; 4: 55; 5: 25; 6: 17; 7: 18; 8: 146

Hi! Can you tell me Kd for each of these binders?
1. pAM240 (Protein L B5b domain; H, H, Q at positions 10, 45, 60) (designed binder) KEQVTIKEHIYFEDGTVQTATFKGTFAEATAEAYRYADLLSKEHGKYTADLEDGGYTIQIRFAGKEEPEE
2. pAM253 (Protein L B4 domain; N10H, N45H, N60Y) (designed binder) PKEEVTIKAHLIYADGKTQTAEFKGTFAEATAEAYRYADLLAKEHGKYTADLEDGGYTIYIRFAGKKVDEKPEE
3. pAM114 (wt B3 domain of Protein L) (protein) PKEEVTIKANLIYADGKTQTAEFKGTFEEATAEAYRYADLLAKENGKYTVDVADKGYTLNIKFAGKEKTPEE
4. pAM235 (Protein L B1 domain; N10H, N45H, N60Q) (designed binder) SEEEVTIKAHLIFANGSTQTAEFKGTFEKATSEAYAYADTLKKDHGEYTVDVADKGYTLQIKFAGKEKTPEE
5. pAM261 (Protein L C4 domain; N10H, N45H, N60Y) (designed binder) PKEEVTIKVHLIFADGKTQTAEFKGTFEEATAEAYRYADLLAKVHGEYTADLEDGGYTIYIKFAGKEQPGENPG

## Output
1. 15
2. 14
3. 11
4. 42
5. 12
